- TARGET_OF_ASSAY: C-X-C chemokine receptor type 6 (Homo sapiens) (UniProt O00574)
- Sequence (O00574 whole entry, looked up): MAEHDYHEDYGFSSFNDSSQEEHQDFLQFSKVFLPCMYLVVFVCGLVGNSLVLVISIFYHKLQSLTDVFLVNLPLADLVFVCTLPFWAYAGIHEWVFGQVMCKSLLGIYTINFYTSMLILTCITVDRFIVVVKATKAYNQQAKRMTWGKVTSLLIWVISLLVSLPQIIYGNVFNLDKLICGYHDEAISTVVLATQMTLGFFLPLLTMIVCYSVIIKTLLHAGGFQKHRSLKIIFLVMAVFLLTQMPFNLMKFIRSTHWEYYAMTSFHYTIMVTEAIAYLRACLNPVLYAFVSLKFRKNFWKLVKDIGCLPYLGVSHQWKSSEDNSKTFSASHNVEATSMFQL
- ASSAY_COMMENT: potency against CXCR6 with APJ panel – cell-based, beta-arrestin, DiscoveRx, uHTS hits, dose response (AID 624129)
- EXPERIMENTAL_SETUP: CXCR6 beta-arrestin (DiscoveRx) antagonist cell assay, CXCR6, run 2, dose range 1
pIC50: −log10 of the molar value.
pIC50 of 5 or higher: YES. Under 5: NO.

MOLECULE: O=C(Nc1nnc(SCc2ccc(F)cc2)s1)c1ccccn1
ANSWER_LABEL: YES
//
MOLECULE: CC(C)c1ccc(O)c(NC(=S)NC(=O)c2cccnc2)c1
ANSWER_LABEL: NO
//
MOLECULE: Cc1cccc(C)c1NC(=O)c1nc(S(=O)(=O)Cc2ccccc2)ncc1Cl
ANSWER_LABEL: NO
//
MOLECULE: CC1(C)CC(=O)C(C=Nc2ccc(C(=O)c3ccccc3)cc2N=CC2=C(O)CC(C)(C)CC2=O)=C(O)C1
ANSWER_LABEL: NO

Q) Record NC(=S)N/N=C/c1ncc(C(F)(F)F)cc1Cl ; criterion: pIC50 no lower than 5. Met?
A) YES

Q) hey, is pIC50 for this one >= 5? COc1ccc(NC(=O)/C(Cl)=C(/Cl)S(=O)Cc2ccccc2)cn1 (centres undefined)
A) YES

Q) Confirm if pIC50 reported for the molecule CCS(=O)(=O)c1ncc(Cl)c(C(=O)Nc2ccc(S(=O)(=O)N(C)c3ccccc3)cc2)n1 is 5 or above.
A) YES

Q) Reported pIC50 reaches at least 5 for CCOc1cc(Br)c(Br)c(C=Nc2ccc(NC(C)=O)cc2)c1O ?
A) NO

Q) Check if pIC50 >= 5 (inclusive). Item: CC(=O)Nc1ccc(NCC(=O)c2ccccc2)cc1
A) NO

Q) Hi team, for C=CCn1nc([N+](=O)[O-])nc1Sc1cccc2cccnc12 , is the recorded pIC50 at or above 5?
A) NO

Q) Answer whether pIC50 of Cc1cc(C)c2c(=O)n(CC(=O)Nc3cccc(Cl)c3C)sc2n1 is greater than or equal to 5.
A) YES
